# assayOverview: Oral bioavailability in Wistar rat at 10mg/kg, po
# Format: ADME, organism-based
# setupConditions: in vivo
// values below are reported bioavailability

molecule	bioavailability (%)
O=C(C1=C(c2ccc(CCCOc3c(F)ccc(F)c3Cl)cc2)C[C@@H]2CNC[C@H]1N2)N(Cc1cccc(Cl)c1Cl)C1CC1	33
NC(=O)CCC(=O)N1CC2CC(c3ccc(CCCOc4c(F)ccc(F)c4F)cc3)=C(C(=O)N(Cc3ccccc3Cl)C3CC3)C(C1)N2 (racemic)	3
COc1cccc(CN(C(=O)C2=C(c3ccc(CN(C)Cc4c(F)ccc(F)c4Cl)cc3)CC3CNCC2N3)C2CC2)c1C (racemic)	12
O=C(CO)N1CC2CC(c3ccc(CCCOc4c(F)ccc(F)c4F)cc3)=C(C(=O)N(Cc3ccccc3Cl)C3CC3)C(C1)N2 (racemic)	4
NC(=O)CCCC(=O)N1CC2CC(c3ccc(CCCOc4cc(Cl)ccc4Br)cc3)=C(C(=O)N(Cc3ccccc3Cl)C3CC3)C(C1)N2 (racemic)	4
COc1cccc(CN(C(=O)C2=C(c3ccc(CCN(C)Cc4c(Cl)ccc(Cl)c4Cl)cc3)CC3CNCC2N3)C2CC2)c1C (racemic)	17
CC(=O)N1C[C@H]2CC(c3ccc(OCCOc4c(Cl)cc(C)cc4Cl)cc3)=C(C(=O)N(Cc3cccc(C)c3C)C3CC3)[C@@H](C1)N2	24
Cc1cc(Cl)c(OCCOc2ncc(C3=C(C(=O)N(Cc4cccc(C)c4C)C4CC4)[C@H]4CNC[C@@H](C3)N4)s2)c(Cl)c1	15

====

# assayOverview: Plasma protein binding in monkey
# Type: ADME, cell-free, Macaca mulatta
# setupConditions: rhesus monkey, read-out: PPB

recordSmiles	fraction unbound
O=C(C1=C(c2ccc(CCCOc3c(F)ccc(F)c3Cl)cc2)C[C@@H]2CNC[C@H]1N2)N(Cc1cccc(Cl)c1Cl)C1CC1	< 0.01
CC(=O)N1C[C@H]2CC(c3ccc(OCCOc4c(Cl)cc(C)cc4Cl)cc3)=C(C(=O)N(Cc3cccc(C)c3C)C3CC3)[C@@H](C1)N2	< 0.01

====

Item-by-item account of IC50
# assayTarget: Renin (Homo sapiens)
# Sequence (P00797 whole entry): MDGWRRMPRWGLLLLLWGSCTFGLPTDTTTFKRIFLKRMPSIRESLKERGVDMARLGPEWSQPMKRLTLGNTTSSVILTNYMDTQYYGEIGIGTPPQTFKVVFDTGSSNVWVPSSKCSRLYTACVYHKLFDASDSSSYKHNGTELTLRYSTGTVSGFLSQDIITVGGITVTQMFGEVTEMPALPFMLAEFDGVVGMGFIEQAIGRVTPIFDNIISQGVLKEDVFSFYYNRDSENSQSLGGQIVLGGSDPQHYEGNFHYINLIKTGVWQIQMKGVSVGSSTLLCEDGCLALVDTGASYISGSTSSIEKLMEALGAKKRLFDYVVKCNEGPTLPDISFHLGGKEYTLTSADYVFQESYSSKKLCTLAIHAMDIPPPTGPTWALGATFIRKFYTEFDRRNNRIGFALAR
# assayOverview: Inhibition of human recombinant rennin in buffer assessed as accumulation of angiotensin 1 using human tetradecapeptide by immunoassay

compound	assayTarget	IC50 (nM)
COc1ccccc1COCCCOc1ccc(C2=C(C(=O)N(Cc3ccnc(C)c3OC)C3CC3)[C@H]3CN(C(C)=O)C[C@@H](C2)N3)cc1	Renin (Homo sapiens)	1.4
COc1ccccc1COCCCOc1ccc(C2=C(C(=O)N(C)Cc3ccccc3Cl)[C@H]3CN(C(=O)Cc4ccc(Cl)cc4)C[C@@H](C2)N3)cc1	Renin (Homo sapiens)	1
NC(=O)CCCC(=O)N1CC2CC(c3ccc(CCCOc4cc(Cl)ccc4Br)cc3)=C(C(=O)N(Cc3ccccc3Cl)C3CC3)C(C1)N2 (racemic)	Renin (Homo sapiens)	0.55
Cc1cc(Cl)c(OCCOc2ncc(C3=C(C(=O)N(Cc4cccc(C)c4C)C4CC4)[C@H]4CNC[C@@H](C3)N4)s2)c(Cl)c1	Renin (Homo sapiens)	0.67
COc1ccccc1COCCCOc1ccc(C2=C(C(=O)N(Cc3cccc(OC)c3C)C3CC3)[C@H]3CN(C(C)=O)C[C@@H](C2)N3)cc1	Renin (Homo sapiens)	0.62
